test: Plasma concentration in Jcl:Sprague-Dawley rat at 14 mg/kg, iv after 60 mins by HPLC analysis; assay type: ADME, organism-based; design: dose 14 mg/kg, route intravenous
measured_metric: concentration at 1 h (ng/mL)
Numbers only here, please. The scale is ng/mL.

Query string: Recorded concentration at 1 h for Cc1ccc(NC(=O)C(=O)NC2CC(C)(C)NC(C)(C)C2)cc1.Cl , please?
Result string: 620

---

test: Plasma concentration in Jcl:Sprague-Dawley rat at 14 mg/kg, iv after 240 mins by HPLC analysis; assay type: ADME, organism-based; parameters: dose 14 mg/kg, route intravenous
measured_metric: concentration at 4 h (µg/mL)
Numbers only here, please. The scale is µg/mL.

Query string: Recorded concentration at 4 h for Cc1ccc(NC(=O)C(=O)NC2CC(C)(C)NC(C)(C)C2)cc1.Cl , please?
Result string: 1.12

---

assay: Plasma concentration in rhesus monkey at 13.4 mg/kg, iv after 1 hr by HPLC analysis; format: ADME, organism-based, Macaca mulatta; design: dose 13.4 mg/kg, route intravenous
measured_metric: concentration at 1 h (ng/mL)
Numbers only here, please. The scale is ng/mL.

Query string: Recorded concentration at 1 h for Cc1ccc(NC(=O)C(=O)NC2CC(C)(C)NC(C)(C)C2)cc1.Cl , please?
Result string: 1260

---

assay: Plasma concentration in Jcl:Sprague-Dawley rat at 14 mg/kg, iv after 45 mins by HPLC analysis; format: ADME, organism-based; design: dose 14 mg/kg, route intravenous
measured_metric: concentration at 0.75 h (ng/mL)
Numbers only here, please. The scale is ng/mL.

Query string: Recorded concentration at 0.75 h for Cc1ccc(NC(=O)C(=O)NC2CC(C)(C)NC(C)(C)C2)cc1.Cl , please?
Result string: 1510
